Every entry's value here was drawn from the RNAGym collection of RNA variant scans (doi:10.7554/elife.90254).

B1: LINE1-full (parent)
chain: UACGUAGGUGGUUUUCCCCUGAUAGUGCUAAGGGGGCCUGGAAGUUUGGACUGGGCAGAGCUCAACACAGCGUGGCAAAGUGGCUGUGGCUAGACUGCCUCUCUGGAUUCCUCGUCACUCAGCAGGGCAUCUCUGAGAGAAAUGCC

# Variants of: B1
# Assay Details: self-cleavage, relative activity (ratio to wild type); higher = more cleavage; in vitro, sequencing; the parent is a self-cleaving ribozyme
Quantity Name: self-cleavage

[[record]]
variant = "A77G U96G"
result = 0.16

[[record]]
variant = "G4A G34A"
result = 0.66

[[record]]
variant = "U15A U85C"
result = 0.03

[[record]]
variant = "G34U A124U"
result = 1.6

[[record]]
variant = "U73C A121U"
result = 1.89

[[record]]
variant = "G36C U62C"
result = 0.05

[[record]]
variant = "G7A U26C"
result = 2

[[record]]
variant = "C38U U100C"
result = 1.9

[[record]]
variant = "A43G A79G"
result = 0.97

[[record]]
variant = "A2G U14C"
result = 0.93

[[record]]
variant = "G34A A59G"
result = 0.07

[[record]]
variant = "G106A C128U"
result = 1.7

[[record]]
variant = "G36C A121G"
result = 1.39

[[record]]
variant = "U23C U87A"
result = 0.06

[[record]]
variant = "A6U U12G"
result = 1.21

[[record]]
variant = "A22G U119C"
result = 1.43

[[record]]
variant = "A50G A141U"
result = 1.54

[[record]]
variant = "A67C G135U"
result = 0.05

[[record]]
variant = "U15C A77C"
result = 0.77

[[record]]
variant = "U13C G53U"
result = 1.11

[[record]]
variant = "U13G G114A"
result = 0.64

[[record]]
variant = "G93A U119A"
result = 0.03

[[record]]
variant = "G33A"
result = 1.14

[[record]]
variant = "U14A U47C"
result = 1.14

[[record]]
variant = "G35U A50U"
result = 0.57

[[record]]
variant = "U29A C110U"
result = 1.07

[[record]]
variant = "A77G A142G"
result = 2.14

[[record]]
variant = "G53A G135U"
result = 0.82

